target: human insulin receptor (IR) (Homo sapiens, UniProt P06213); assay: Binding affinity to the human insulin receptor relative to human insulin (SPA antibody capture assay); settings: binding affinity to the human insulin receptor relative to that of human insulin
Sequence (P06213 28-746 isoform P06213-2 limits assumed): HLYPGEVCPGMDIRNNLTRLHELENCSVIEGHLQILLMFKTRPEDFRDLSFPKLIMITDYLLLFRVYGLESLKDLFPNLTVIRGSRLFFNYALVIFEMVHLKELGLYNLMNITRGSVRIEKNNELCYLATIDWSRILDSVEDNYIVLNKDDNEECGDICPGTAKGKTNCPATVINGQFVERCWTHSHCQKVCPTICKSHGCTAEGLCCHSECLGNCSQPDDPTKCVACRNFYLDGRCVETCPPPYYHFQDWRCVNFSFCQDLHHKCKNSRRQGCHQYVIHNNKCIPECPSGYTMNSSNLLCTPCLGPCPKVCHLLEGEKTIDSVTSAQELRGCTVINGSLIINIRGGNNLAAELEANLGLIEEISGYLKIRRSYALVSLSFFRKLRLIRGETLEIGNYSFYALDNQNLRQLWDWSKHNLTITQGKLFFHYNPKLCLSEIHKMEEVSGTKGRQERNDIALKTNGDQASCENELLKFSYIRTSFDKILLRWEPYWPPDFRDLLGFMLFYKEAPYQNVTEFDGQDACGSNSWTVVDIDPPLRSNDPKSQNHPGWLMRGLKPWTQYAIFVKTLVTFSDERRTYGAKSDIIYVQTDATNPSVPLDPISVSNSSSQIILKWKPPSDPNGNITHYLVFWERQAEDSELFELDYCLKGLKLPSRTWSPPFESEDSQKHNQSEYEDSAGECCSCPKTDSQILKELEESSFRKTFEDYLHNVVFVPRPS
Sequence (P06213 763-1382 partner limits assumed): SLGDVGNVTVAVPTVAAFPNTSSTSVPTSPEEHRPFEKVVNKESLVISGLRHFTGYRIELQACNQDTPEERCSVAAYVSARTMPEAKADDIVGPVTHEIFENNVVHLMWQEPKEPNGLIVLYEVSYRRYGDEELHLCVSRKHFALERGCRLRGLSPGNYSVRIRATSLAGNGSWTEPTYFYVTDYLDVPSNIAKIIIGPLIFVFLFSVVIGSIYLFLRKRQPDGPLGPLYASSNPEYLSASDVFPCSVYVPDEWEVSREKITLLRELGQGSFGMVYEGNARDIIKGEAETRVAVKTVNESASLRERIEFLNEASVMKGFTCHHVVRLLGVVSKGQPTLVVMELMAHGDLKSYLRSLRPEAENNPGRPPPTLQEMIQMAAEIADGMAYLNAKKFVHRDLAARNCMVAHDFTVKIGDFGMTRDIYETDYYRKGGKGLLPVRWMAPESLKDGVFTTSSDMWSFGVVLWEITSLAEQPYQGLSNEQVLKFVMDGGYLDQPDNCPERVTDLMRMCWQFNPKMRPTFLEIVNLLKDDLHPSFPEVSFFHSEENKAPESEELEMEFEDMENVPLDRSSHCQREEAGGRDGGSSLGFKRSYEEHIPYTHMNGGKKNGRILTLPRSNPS
# IR binding in percent of human insulin per entry
Parameter: IR binding in percent of human insulin (%)

substance="B(1-29)-B29A-VGLSSGQ-A(1-21)-A8K(N^ε-3-(mPEG2000-yl)propionyl)-A18Q Human Insulin [Example 4]" unit_tag=% experimental_result=4.6
substance="B(1-29)-B3K(N^ε-3-(mPEG2000-yl)propionyl)-B29A-VGLSSGQ-A(1-21)-A18Q Human Insulin [Example 7]" unit_tag=% experimental_result=4.5
substance="B(1-29)-B29K(N^ε-3-(mPEG2000-yl-propionyl)-VGLSSGQ-A(1-21)-A18Q Human Insulin [Example 3]" unit_tag=% experimental_result=5.3

Cited source: patent US20100216690A1
